System: Haemonchus contortus
Experiment: Anthelmintic activity against Haemonchus contortus McMaster by larvel development assay
Format: functional
experimentalReadout: LD99

Sample records with LD99:
CCCCc1ccc2nc(-c3ccc(OCCOC)cc3)cn2n1 : 1.92 µM
CCOc1ccc(-c2cn3nc(OCC4CC4)ccc3n2)cc1 : 0.09 µM
CCCNc1ccc2nc(-c3ccc(OCCOC)cc3)cn2n1 : 2.11 µM
c1ccc([C@H]2CN3CCSC3=N2)cc1 [LEVAMISOLE] : 0.66 µM
CCCSc1ccc2nc(-c3ccc(OCCOC)c(OC)c3)c(Br)n2n1 : 1.66 µM

Please examine the following record next.
Considering CCCSc1ccc2nc(-c3ccc(OCC)cc3)cn2n1 , its LD99 with Haemonchus contortus was recorded as 1.21 µM

====

Test system: Haemonchus contortus
Test: Anthelmintic activity against Haemonchus contortus McMaster by larvel development assay
Assay type: functional
Active and inactive are the calls of the source. The rule behind the calls is not given here.
experimentalReadout: LD99

Please review the entries below; each comes with its answer.
CCCSc1ccc2nc(-c3cccc(OC)c3)cn2n1 : 2.1 µM
CCCOc1ccc2nc(-c3ccc(Cl)cc3)cn2n1 : 13.03 µM
CCCOc1ccc2nc(-c3cccc(OCCOC)c3)c(C)n2n1 : 5.49 µM
COCCOc1ccc(-c2nc3ccc(OCc4ccccc4)nn3c2Cl)cc1 : inactive

For COCCOc1ccc(-c2nc3ccc(OCC4CC4)nn3c2Br)cc1 the compound record lists LD99 as 0.1 µM

Please fill in: LD99 reported for CCCSc1ccc2nc(-c3ccc(Cl)cc3Cl)cn2n1 = inactive

Per the records, this compound ( CCCOc1ccc2nc(-c3ccc4c(c3)OCO4)cn2n1 ) has LD99 equal to 0.77 µM

Record CCCOc1ccc2nc(-c3ccc(OCCOC)cc3)c(C#N)n2n1 . Reported LD99: 0.11 µM

====

Tested on: Haemonchus contortus
Test: Anthelmintic activity against Haemonchus contortus McMaster by larvel development assay
Assay type: functional
Calls of active or inactive are those of the source. The calls are words filed in the database; no cut-off is given here.
experimentalReadout: LD99

See these solved cases before continuing.
COCCOc1ccc(-c2cn3nc(OCC4CC4)ccc3n2)cc1 : 0.11 µM
CCCOc1ccc2nc(-c3ccc(OCCOC)c(OC)c3)cn2n1 : 2.27 µM
CCCOc1ccc2nc(-c3ccc(OCCOC)cc3)c(C)n2n1 : 0.32 µM
CCCCN(C)c1ccc2nc(-c3ccc(OCCOC)cc3)cn2n1 : 2.29 µM
CCCOc1ccc2nc(-c3ccc(OCCOC)c(OC)c3)c(I)n2n1 : 10.35 µM
COCCOc1ccc(-c2cn3nc(N4CCCC4)ccc3n2)cc1 : 9.6 µM
COCCOc1ccc(-c2cn3nc(OC4CCCC4)ccc3n2)cc1 : 5.31 µM
COCCOc1ccc(-c2cn3nc(-c4ccccc4)ccc3n2)cc1 : 8.11 µM
FC(F)(F)c1ccc(-c2cn3nc(OCC4CC4)ccc3n2)cc1 : inactive
CCCOc1ccc2nc(-c3ccc(OCCOC)cc3)c(-c3ccccc3)n2n1 : 9.29 µM

Recorded LD99 (compound CCCCSc1ccc2nc(-c3ccc(C(F)(F)F)cc3)cn2n1 ): inactive

The compound listed as COCCOc1ccc(-c2cn3nc(OCCOC)ccc3n2)cc1 shows LD99 equal to 17.47 µM

====

System: Haemonchus contortus
Assay: Anthelmintic activity against Haemonchus contortus McMaster by larvel development assay
Format: functional
The source made the active and inactive calls. The calls are words filed in the database; no cut-off is given here.
experimentalReadout: LD99

Completed entries (count: 5):
CCCOc1ccc2nc(-c3ccccc3)cn2n1 : inactive
CCCOc1ccc2nc(-c3ccc(OCCOC)cc3)c(Br)n2n1 : 0.03 µM
COCCOc1ccc(-c2cn3nc(OC(C)C)ccc3n2)cc1 : 4.96 µM
CCOCCOc1ccc(-c2cn3nc(OCC4CC4)ccc3n2)cc1 : 0.11 µM
CCCOc1ccc2nc(-c3ccc(OCCOCC)cc3)cn2n1 : 0.32 µM

The measured LD99 associated with CCCCOc1ccc2nc(-c3ccc(OCCOC)cc3)cn2n1 reads 0.64 µM

The molecule CCCOc1ccc2nc(-c3ccc(OCCOC)c(OC)c3)c(C#N)n2n1 showed LD99 equal to inactive

The molecule listed as CCCOc1ccc2nc(-c3ccc(OCCOC)cc3)c(Cl)n2n1 has a reported LD99 of 0.06 µM

The molecule listed as Clc1ccc(-c2cn3nc(OCC4CC4)ccc3n2)c(Cl)c1 shows LD99 equal to inactive
